- tested on: human mutated 5HT2A receptor, AP-3 (Homo sapiens, UniProt P28223, T25N)
- Construct: Inositol Phosphate Accumulation AP-3 IC50 Value (nM); other: several concentrations; IP3 % of Control; other: one concentration of 10 μM, triplicate; control without test compound
- Sequence (P28223 whole entry T25N, looked up): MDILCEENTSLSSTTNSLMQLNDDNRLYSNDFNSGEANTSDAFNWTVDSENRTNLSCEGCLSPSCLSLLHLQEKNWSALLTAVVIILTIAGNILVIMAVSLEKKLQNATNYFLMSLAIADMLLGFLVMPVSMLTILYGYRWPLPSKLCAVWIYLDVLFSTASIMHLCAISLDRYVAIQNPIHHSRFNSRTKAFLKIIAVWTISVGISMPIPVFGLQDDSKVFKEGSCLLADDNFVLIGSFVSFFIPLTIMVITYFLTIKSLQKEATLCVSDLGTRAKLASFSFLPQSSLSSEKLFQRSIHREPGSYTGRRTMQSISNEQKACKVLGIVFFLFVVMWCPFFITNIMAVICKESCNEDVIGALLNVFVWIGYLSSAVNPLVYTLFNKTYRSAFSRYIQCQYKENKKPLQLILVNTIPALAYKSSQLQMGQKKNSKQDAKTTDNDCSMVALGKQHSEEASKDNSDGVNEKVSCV
- test method notes: Inositol phosphate accumulation assay, AP-3;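 further: transfected 293 cells prelabeled with 3H-inositol, exposed to compound 120 min at 37 °C with LiCl and pargyline, inositol trisphosphates isolated by anion exchange and counted by scintillation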
- Format: cell-based
- settings: read-out: IP3 % of Control
test readout: remaining activity at 10 µM (%)
Answers are plain numbers, in %.

CSc1ccc(NC(=O)Nc2cccc(-c3nn(C)cc3Br)c2)cc1 : 16

Hi! Can you tell me remaining activity at 10 µM for each of these molecules?
1. Cc1cccc(NC(=O)Nc2cccc(-c3nn(C)cc3Br)c2)c1
2. Cn1cc(Br)c(-c2cccc(NC(=O)Nc3cccc(Cl)c3)c2)n1
3. Cn1cc(Br)c(-c2cccc(NC(=O)Nc3ccc(C#N)cc3)c2)n1
4. COc1ccc(NC(=O)Nc2cccc(-c3nn(C)cc3Br)c2)cc1

Output:
[14, 11, 12, 12]
